Measured values drawn from patent US11021444B2 for this set.

Test system: Respiratory Syncytial Virus (RSV) long strain
Assay: microbe, parasite or virus in culture
Assay type: cell-based
Conditions: human respiratory syncytial virus, HEp-2, 120 h, read-out: 50% effective concentration (EC50), HEp-2 cells infected with RSV long strain, 5 days, CCK-8 readout; Tables A and B list compounds by EC50 band
pEC50: −log10 of the molar value.
OUTCOME_MEASURE: pEC50

[[record]]
compound = "COc1cc(C(=O)NCC(O)(c2ccc(OC)c(-c3ccc(F)c(Cl)c3)n2)C(F)(F)F)ccc1OC1CCCC1 (stereo not shown) [Compound 236]"
tested_system = "Respiratory Syncytial Virus (RSV) long strain"
result = "4.30 to 6.00"


Ask | Fetch value of pEC50 on Respiratory Syncytial Virus (RSV) long strain for CNC(C)(C)c1cc(-c2ccc(F)c(Cl)c2)nc(C(O)(CNC(=O)c2ccc(OCCO)c(OC)c2)C(F)(F)F)c1 (stereo not shown) [Compound 491] .
Reply | > 6.00

Ask | Please report pEC50 with Respiratory Syncytial Virus (RSV) long strain for item CCc1ccc(C(C)(O)CNC(=O)c2ccc(OC)c(OC)c2)nc1-c1csc2c(F)cccc12 (stereo not shown) [Compound 115] .
Reply | > 6.00

Ask | Param request: pEC50 | system Respiratory Syncytial Virus (RSV) long strain | item COc1cc(C(=O)NCC(O)(c2cc3c(c(-c4ccc(F)c(Cl)c4)n2)OCCC3(C)C)C(F)(F)F)ccc1OCC(N)=O (stereo not shown) [Compound 347]
Reply | > 6.00

Ask | GET pEC50 where system = Respiratory Syncytial Virus (RSV) long strain and item = COc1cc(C(=O)NCC(O)(c2cc3c(c(-c4ccc(F)cc4)n2)OCC3(N)C(C)C)C(F)(F)F)ccc1OC[C@@H](C)O (stereo partly shown) [Compound 568]
Reply | > 6.00

Ask | Report pEC50 on Respiratory Syncytial Virus (RSV) long strain for this entry: COc1cc(C(=O)NCC(F)(c2ccc(OC)c(-c3ccc(F)c(Cl)c3)n2)C(F)(F)F)ccc1OCC(N)=O (stereo not shown) [Compound 343]
Reply | > 6.00

Ask | Give pEC50 for COc1cc(C(=O)NCC(O)(c2cc([C@@]3(C)CCN3)cc(-c3ccc(F)c(Cl)c3)n2)C(F)(F)F)ccc1OC1CC1 (stereo partly shown) [Compound 563] tested on Respiratory Syncytial Virus (RSV) long strain.
Reply | > 6.00
